// provenance: patent US12071404B2

Parameter: IC50. Scope: all listed entries.
TARGET ENTITY: GPR17 (Homo sapiens)
PROTOCOL DESCRIPTION: Calcium mobilization functional assay (GPR17 Ca2+ assay)
Type: cell-based
Parameters: host or cells: Flp-In T-REx CHO
CONDITIONS: CHO hGPR17 cells, inhibition of 50 nM MDL29,951, Calcium 5 dye, FLIPR; read-out: Ca2+ assay pIC50 (converted)

# STRUCTURE NOTATION, IC50
rows = [
    ("O=S(=O)(Nc1cc2nsnc2cc1F)c1c[nH]c2cc(Cl)ccc12", "< 3.16 nM"),
    ("COC/C=C/c1cc(F)c(NS(=O)(=O)c2c[nH]c3cc(Br)ccc23)nc1F", "< 3.16 nM"),
    ("O=S(=O)(Nc1cc(F)c(Cl)cc1F)c1c[nH]c2cc(Cl)c(Br)cc12", "3.16 to 31.6 nM"),
    ("O=S(=O)(Nc1ncc(C(F)(F)F)cc1F)c1c[nH]c2cc(Cl)ccc12", "3.16 to 31.6 nM"),
]

====

TARGET ENTITY: GPR17 (Homo sapiens, UniProt Q13304)
Sequence (Q13304 whole entry): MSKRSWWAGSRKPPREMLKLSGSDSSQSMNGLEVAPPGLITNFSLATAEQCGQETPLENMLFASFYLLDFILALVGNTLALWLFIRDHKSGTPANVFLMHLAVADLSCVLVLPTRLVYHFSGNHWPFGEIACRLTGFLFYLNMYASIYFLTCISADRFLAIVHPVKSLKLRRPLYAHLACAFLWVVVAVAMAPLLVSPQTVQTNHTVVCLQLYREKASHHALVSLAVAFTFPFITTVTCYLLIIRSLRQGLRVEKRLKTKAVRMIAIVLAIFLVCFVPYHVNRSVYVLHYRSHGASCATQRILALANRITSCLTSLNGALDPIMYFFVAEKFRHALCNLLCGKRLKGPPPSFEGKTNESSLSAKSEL
PROTOCOL DESCRIPTION: Calcium mobilization functional assay (GPR17 Ca2+ assay)
Format: cell-based
Design: host or cells: Flp-In T-REx CHO
CONDITIONS: CHO hGPR17 cells, inhibition of 50 nM MDL29,951, Calcium 5 dye, FLIPR; read-out: Ca2+ assay pIC50 (converted)
We begin with a simple list: items and their reported IC50.

# STRUCTURE NOTATION, TARGET ENTITY, IC50
records = [
    ("COc1cc(C#N)ccc1NS(=O)(=O)c1c[nH]c2cc(Cl)ccc12", "GPR17 (Homo sapiens, UniProt Q13304)", "3.16 to 31.6 nM"),
    ("CS(=O)(=O)c1c(Cl)ccc2c(S(=O)(=O)Nc3cc(F)c(Cl)cc3F)c[nH]c12", "GPR17 (Homo sapiens, UniProt Q13304)", "3.16 to 31.6 nM"),
    ("O=S(=O)(Nc1cccc(F)c1F)c1c[nH]c2cc(Cl)ccc12", "GPR17 (Homo sapiens, UniProt Q13304)", "> 31.6 nM"),
    ("COc1nc(NS(=O)(=O)c2c[nH]c3c2ccc2cccnc23)c(F)cc1Cl", "GPR17 (Homo sapiens, UniProt Q13304)", "< 3.16 nM"),
    ("O=S(=O)(Nc1cc(F)ccc1F)c1c[nH]c2ncc(I)cc12", "GPR17 (Homo sapiens, UniProt Q13304)", "> 31.6 nM"),
    ("O=S(=O)(Nc1cc(F)c(F)cc1F)c1c[nH]c2c1ccc1cccnc12", "GPR17 (Homo sapiens, UniProt Q13304)", "3.16 to 31.6 nM"),
    ("N#Cc1ccc(NS(=O)(=O)c2c[nH]c3cc(-c4cccnc4)ccc23)c(F)c1", "GPR17 (Homo sapiens, UniProt Q13304)", "3.16 to 31.6 nM"),
    ("N#Cc1cc(NS(=O)(=O)c2c[nH]c3cc(Cl)ccc23)c2c(c1)OC(F)(F)O2", "GPR17 (Homo sapiens, UniProt Q13304)", "3.16 to 31.6 nM"),
    ("O=S(=O)(Nc1nc(F)c(Cl)cc1F)c1c[nH]c2c1ccc1cccnc12", "GPR17 (Homo sapiens, UniProt Q13304)", "3.16 to 31.6 nM"),
    ("O=S(=O)(Nc1ccc(F)cc1F)c1c[nH]c2nc(Cl)ccc12", "GPR17 (Homo sapiens, UniProt Q13304)", "> 31.6 nM"),
    ("N#Cc1ccc(NS(=O)(=O)c2c[nH]c3cc(-c4ccsc4)ccc23)c(F)c1", "GPR17 (Homo sapiens, UniProt Q13304)", "3.16 to 31.6 nM"),
]
